Test system: Ipomoea hederacea (IPOHE)
Experiment: Post-emergence glasshouse herbicide test
Format: in vivo
Conditions: 125 g/h, evaluated after 13 days
Collected percentage damage caused to the plant, IPOHE values appear next to each entry.
observation-type: percentage damage caused to the plant, IPOHE

• CC(C)CS(=O)(=O)c1c(OC(F)F)ccc(C(=O)Nc2nnnn2C)c1Cl = 5 (5=80-100%)
• CCSc1c(OC(F)F)ccc(C(=O)Nc2nnc(C)o2)c1Cl = 4 (4=60-79%)
• CC[S+]([O-])c1c(OC(F)F)ccc(C(=O)Nc2nnnn2C)c1Cl (stereo not drawn) = 5 (5=80-100%)
• CCSc1c(OC(F)(F)F)ccc(C(=O)Nc2nnnn2C)c1C = 5 (5=80-100%)
• CCSc1c(OC(F)(F)F)ccc(C(=O)Nc2nnc(C)o2)c1Cl = 4 (4=60-79%)
• CCCS(=O)(=O)c1c(OC(F)F)ccc(C(=O)Nc2nnnn2CC)c1Cl = 4 (4=60-79%)
• CCn1nnnc1NC(=O)c1ccc(OCC(F)(F)F)c(S(=O)(=O)CC)c1C = 3 (3=40-59%)
• CCn1nnnc1NC(=O)c1ccc(OC(F)(F)F)c(S(=O)(=O)CC)c1C = 5 (5=80-100%)
• CCS(=O)(=O)c1c(CC(F)(F)F)ccc(C(=O)Nc2nnnn2C)c1Cl = 5 (5=80-100%)
• CCn1nnnc1NC(=O)c1ccc(OC(F)F)c(S(=O)(=O)CC)c1Cl = 4 (4=60-79%)
• CCn1nnnc1NC(=O)c1ccc(OC(F)(F)F)c(S(=O)(=O)CC)c1Cl = 5 (5=80-100%)
• CCS(=O)(=O)c1c(CC(F)(F)F)ccc(C(=O)Nc2nnnn2C)c1C = 5 (5=80-100%)
• CCS(=O)(=O)c1c(OC(F)F)ccc(C(=O)Nc2nnc(C)o2)c1C = 4 (4=60-79%)
• CCS(=O)(=O)c1c(OC(F)F)ccc(C(=O)Nc2nnnn2C)c1C = 5 (5=80-100%)
• CC[S+]([O-])c1c(OC(F)(F)F)ccc(C(=O)Nc2nnnn2C)c1C (stereo not drawn) = 5 (5=80-100%)
• CCSc1c(OCC(F)(F)F)ccc(C(=O)Nc2nnnn2C)c1C = 4 (4=60-79%)
• CCS(=O)(=O)c1c(OC(F)(F)F)ccc(C(=O)Nc2nnc(C)o2)c1C = 4 (4=60-79%)
• CCS(=O)(=O)c1cc(C(=O)Nc2nnnn2C)ccc1OC(F)F = 5 (5=80-100%)

* * *

System: Echinochloa crus-galli (ECHCG)
Test: Post-emergence glasshouse herbicide test
Format: in vivo
Conditions: 125 g/h, evaluated after 13 days
observation-type: percentage damage caused to the plant, ECHCG

* CCSc1c(OCC(F)(F)F)ccc(C(=O)Nc2nnnn2C)c1Cl | 5 (5=80-100%)
* CCn1nnnc1NC(=O)c1ccc(OCC(F)(F)F)c(S(=O)(=O)CC)c1Cl | 5 (5=80-100%)
* CCn1nnnc1NC(=O)c1ccc(OC(F)F)c(S(=O)(=O)CC)c1Cl | 5 (5=80-100%)
* CCSc1c(OC(F)F)ccc(C(=O)Nc2nnc(C)o2)c1Cl | 5 (5=80-100%)
* CCSc1c(OC(F)F)ccc(C(=O)Nc2nnnn2C)c1Cl | 5 (5=80-100%)
* CC[S+]([O-])c1c(OCC(F)(F)F)ccc(C(=O)Nc2nnnn2C)c1C (stereo not shown) | 5 (5=80-100%)
* CCS(=O)(=O)c1c(CC(F)(F)F)ccc(C(=O)Nc2nnnn2C)c1C | 5 (5=80-100%)
* CCSc1c(OCC(F)(F)F)ccc(C(=O)Nc2nnnn2C)c1C | 5 (5=80-100%)
* CCS(=O)(=O)c1cc(C(=O)Nc2nnc(C)o2)ccc1OC(F)(F)F | 5 (5=80-100%)
* CC(C)S(=O)(=O)c1c(OC(F)F)ccc(C(=O)Nc2nnnn2C)c1Cl | 4 (4=60-79%)
* CC(C)CS(=O)(=O)c1c(OC(F)F)ccc(C(=O)Nc2nnnn2C)c1Cl | 4 (4=60-79%)
* CCn1nnnc1NC(=O)c1ccc(OC(F)F)c(S(=O)(=O)CC(C)C)c1Cl | 5 (5=80-100%)
* CCCSc1c(OC(F)F)ccc(C(=O)Nc2nnnn2CC)c1Cl | 4 (4=60-79%)
* CCn1nnnc1NC(=O)c1ccc(OC(F)F)c(S(=O)(=O)CC)c1C | 5 (5=80-100%)
* CCS(=O)(=O)c1c(OCC(F)(F)F)ccc(C(=O)Nc2nnnn2C)c1C | 5 (5=80-100%)
* CCn1nnnc1NC(=O)c1ccc(OCC(F)(F)F)c(S(=O)(=O)CC)c1C | 5 (5=80-100%)
